Target: RIPK1 (Homo sapiens (Human))
Sequence (Q13546 whole entry, species assumed): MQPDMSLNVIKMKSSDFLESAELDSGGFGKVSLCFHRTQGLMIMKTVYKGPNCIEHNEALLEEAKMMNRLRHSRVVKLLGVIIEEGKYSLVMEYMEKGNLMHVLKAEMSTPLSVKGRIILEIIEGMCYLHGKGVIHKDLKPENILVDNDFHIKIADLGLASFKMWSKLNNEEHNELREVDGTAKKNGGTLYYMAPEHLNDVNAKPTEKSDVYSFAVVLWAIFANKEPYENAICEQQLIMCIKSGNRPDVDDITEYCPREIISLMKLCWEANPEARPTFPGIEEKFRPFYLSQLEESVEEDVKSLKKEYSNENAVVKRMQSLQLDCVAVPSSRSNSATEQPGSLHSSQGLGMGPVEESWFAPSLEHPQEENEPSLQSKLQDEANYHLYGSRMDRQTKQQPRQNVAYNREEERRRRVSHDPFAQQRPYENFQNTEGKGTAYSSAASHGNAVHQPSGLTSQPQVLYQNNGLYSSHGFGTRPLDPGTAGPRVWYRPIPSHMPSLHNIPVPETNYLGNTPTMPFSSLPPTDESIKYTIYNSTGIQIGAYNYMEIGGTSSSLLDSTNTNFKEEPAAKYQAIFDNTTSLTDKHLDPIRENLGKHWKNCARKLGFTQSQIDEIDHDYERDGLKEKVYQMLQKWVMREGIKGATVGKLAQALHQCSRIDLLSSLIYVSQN
Assay Info: RIPK1 ADP-Glo biochemical kinase assay
Condition Notes: read-out: RIPK1 ADP-Glo Kinase (IC50)
So basically, if IC50 comes in under 40 nM it's y, and if it's 40 nM or more it's n.

Use the examples below as a reference point.
1. COC(=O)C#Cc1ccc2c(c1)N(C)C(=O)[C@@H](NC(=O)c1cc(Oc3ccccc3)ccn1)CO2 [Compound I-159] = y
2. CN1C(=O)[C@@H](NC(=O)c2cc(Oc3ccccc3)ccn2)COc2ccc(C#CC3(C)COC3)cc21 [Compound I-127] = y
3. CN1C(=O)[C@@H](NC(=O)c2n[nH]c(Cc3ccccc3)n2)COc2ccc(CN3CCn4ncnc4C3)cc21 [Compound I-24] = n
4. CN1C(=O)[C@@H](NC(=O)c2cc(Oc3ccccc3)ccn2)COc2ccc(CCC(N)=O)cc21 [II-24] = n
5. CN1C(=O)[C@@H](NC(=O)c2n[nH]c(Cc3ccccc3)n2)COc2ccc(C#CC3(O)COC3)cc21 [Compound I-57] = y

Now look at this one.
Inquiry: Hi there! Is IC50 for CN1C(=O)[C@@H](NC(=O)c2cc(Oc3ccccc3)ccn2)COc2ccc(C#CCO)cc21 [II-35] below 40 nM, do you know?
Reply text: y

###

System: L929 cells
Assay Info: L929 cell necroptosis assay (TNFa + zVAD, CellTiter-Glo)
Assay type: cell-based, murine
Condition Notes: Mus musculus, L929, L929 cells, TNFa + zVAD; read-out: L929-CTG-recovery, L929, TNFa + zVAD (IC50)
pIC50: −log10 of the molar value.
We use 8 as the dividing line for pIC50: on or above the line is y, below is n.

Use the examples below as a reference point.
1. CN1C(=O)[C@@H](NC(=O)c2cc(Oc3ccccc3)ccn2)COc2ccc(C#CC(C)(C)N3CCOCC3)cc21 [Compound I-206] = n
2. CN1C(=O)[C@@H](NC(=O)n2cc(Cc3ccc(F)cc3)cn2)COc2ccc(C#CC3(O)COC3)cc21 [Compound I-222] = n
3. CN1C(=O)[C@@H](NC(=O)c2n[nH]c(Cc3ccccc3F)n2)COc2ccc(C#CC(C)(C)C)cc21 [Compound I-89] = y
4. CN1C(=O)[C@@H](NC(=O)c2ncn(Cc3ccccc3F)n2)COc2ccc(CCC(=O)O)cc21 [Compound I-6] = n
5. CC(C)N1CC(F)(C#Cc2ccc3c(c2)N(C)C(=O)[C@@H](NC(=O)c2cc(Oc4ccccc4)ccn2)CO3)C1 [Compound I-166] = n
6. C=C(C)C#Cc1ccc2c(c1)NC(=O)[C@@H](NC(=O)c1n[nH]c(Cc3ccccc3)n1)CO2 [Compound I-93] = n

Inquiry: Item CCN1C(=O)[C@@H](NC(=O)c2n[nH]c(Cc3ccccc3)n2)COc2ccc(C#CC(C)(C)O)cc21 [Compound I-91] with pIC50 of 8 or above?
Reply text: y

Inquiry: Entry to check: C#Cc1ccc2c(c1)N(C)C(=O)[C@@H](NC(=O)c1n[nH]c(Cc3ccccc3)n1)CO2 [Compound I-81]
Reply text: y

Inquiry: Entry to check: CC(C)[C@H](N)C(=O)OCC(C)(C)C#Cc1ccc2c(c1)N(C)C(=O)[C@@H](NC(=O)c1cc(Oc3ccc(F)cc3)ccn1)CO2 [Compound I-172]
Reply text: n

Where do these numbers come from? They come from patent US11407736B2.
